# Tested on: Malme-3M
# PROTOCOL_SUMMARY: NCI tumour cell line growth inhibition, 48 h
Activity calls are given as the source filed them. No stated cut-off is given here; in the data, active = GI50 up to about 1.1 µM and inactive = higher.
// one of 1 for active, 0 for inactive, no free text

Some solved cases for reference:
>>> assigned_category("CN[C@@H](Cc1cccc2ccccc12)C(=O)N[C@@H](CC(C)C)B(O)O")
1
>>> assigned_category("O=C(O)CNc1ncc2c(n1)-c1ccccc1OC2")
0
>>> assigned_category("CCOC(=O)c1ccc(NC(=O)Oc2ccc3c(C)cc(=O)oc3c2)cc1")
0
>>> assigned_category("CCCCn1c2c(n(CCCC)c1=S)-c1c(n(CCCC)c(=S)n1CCCC)S[Se][Se]S2")
1
>>> assigned_category("C1C2CC3CC1CC(c1nn4c(C56CC7CC(CC(C7)C5)C6)nnc4s1)(C2)C3")
0

**Query** Fill in: this test's call for `C[C@@H]1CC[C@@H](C)[C@](C)(CCc2ccoc2)C/C=C\C=C/1C(=O)O` is ___
**Result** 0

**Query** Fill in: this test's call for `C/C(CCn1[nH]c(=O)ccc1=O)=N\N=C(N)N` is ___
**Result** 0

**Query** Fill in: this test's call for Cc1c(C#N)c(N)n(C2OC(CO)C(O)C(O)C2O)c(=S)c1C#N (stereo not given) is ___
**Result** 0
